# System: OVCAR-5
# assay name: NCI tumour cell line growth inhibition, 48 h
Active and inactive are the calls of the source. Rule as the data show it: active = GI50 up to about 1.1 µM and inactive = higher.
GI50 values for the molecules below.

Solved entries:
[
  {
    "molecule": "CCOC(=O)C1=C(OC(OCC)C([Se]c2ccccc2)C(C)C)CCC1 (stereo unspecified)",
    "assay target": "OVCAR-5",
    "GI50": "22.3 µM (inactive)"
  },
  {
    "molecule": "COc1cc([C@@H]2c3cc4c(cc3[C@@H](OC(=O)c3ccc(N)cc3)C3COC(=O)[C@@H]32)OCO4)cc(OC)c1O (stereo partly specified)",
    "assay target": "OVCAR-5",
    "GI50": "41.5 µM (inactive)"
  },
  {
    "molecule": "CCOC(=O)/C=C/c1cccc(F)c1",
    "assay target": "OVCAR-5",
    "GI50": "> 100 µM (inactive)"
  }
]

Considering "C[C@H](C/C=C/C(C)(C)O)[C@H]1CC[C@@]2(C)[C@@H]3CC[C@H]4C(C)(C)[C@@H](O)CC[C@@]45C[C@@]35CC[C@]12C" , its GI50 with OVCAR-5 was recorded as 14.4 µM (inactive)

Considering O=C(O)c1cc2c3c(c1)[C@H]1C=CC[C@H]1CN3CC1CC=CC21 (stereo partly specified) , its GI50 with OVCAR-5 was recorded as > 100 µM (inactive)

Considering "C/C(=N\N=C1/C(=O)OC(c2ccccc2)=C1C(=O)c1ccccc1)c1ccc([N+](=O)[O-])cc1" , its GI50 with OVCAR-5 was recorded as 72.3 µM (inactive)

Considering C=C1C(=O)C23CC1C[C@H](OC(C)=O)[C@H]2C1(C)C(OC(C)=O)C[C@H](O)C(C)(C)[C@H]1C(=O)[C@@H]3OC(C)=O (stereo partly specified) , its GI50 with OVCAR-5 was recorded as 9.51 µM (inactive)

Considering CC[S+]([O-])C(=O)N(O)c1ccc(Cl)cc1 (stereo unspecified) , its GI50 with OVCAR-5 was recorded as 17.7 µM (inactive)

* * *

# System: ACHN
# assay name: NCI tumour cell line growth inhibition, 48 h
Active and inactive are the calls of the source. No stated cut-off is given here; in the data, active = GI50 up to about 1.1 µM and inactive = higher.
observation type: GI50

Solved entries:
[
  {
    "molecule": "COc1ccc2c(c1)CCc1cc(OC)ccc1/[N+]([O-])=[N+]\\2[O-]",
    "assay target": "ACHN",
    "val": "10.8 µM (inactive)"
  },
  {
    "molecule": "COC(=O)CCSC1=CC(=O)c2nc3ccccc3c3ccnc1c23",
    "assay target": "ACHN",
    "val": "19.4 µM (inactive)"
  },
  {
    "molecule": "Cc1sc(N)c(S(=O)(=O)c2ccccc2)c1C",
    "assay target": "ACHN",
    "val": "> 100 µM (inactive)"
  },
  {
    "molecule": "Nc1nc2cc(CNc3ccc(C(=O)O)cc3)ccc2nc1-c1ccccc1",
    "assay target": "ACHN",
    "val": "> 100 µM (inactive)"
  },
  {
    "molecule": "C/C(=N\\N=C1/C(=O)OC(c2ccccc2)=C1C(=O)c1ccccc1)c1ccc([N+](=O)[O-])cc1",
    "assay target": "ACHN",
    "val": "42.6 µM (inactive)"
  },
  {
    "molecule": "C=C(CCCCC)CN1CCCC1C(C)=O (centres undefined)",
    "assay target": "ACHN",
    "val": "25.5 µM (inactive)"
  },
  {
    "molecule": "Cc1nn(-c2ccccc2)c(C)c1/C=N/N=C1\\SCC(=O)N1c1ccccc1",
    "assay target": "ACHN",
    "val": "17.3 µM (inactive)"
  },
  {
    "molecule": "C=CCn1c(=O)c(-c2ccccc2)c(O)c2ccccc21",
    "assay target": "ACHN",
    "val": "> 100 µM (inactive)"
  },
  {
    "molecule": "Clc1ccc(C2SCc3nc4ccccc4n32)cc1Cl (centres undefined)",
    "assay target": "ACHN",
    "val": "13 µM (inactive)"
  },
  {
    "molecule": "O=c1cc(N2CCCC2)[nH]c(=O)n1-c1cccc(C(F)(F)F)c1",
    "assay target": "ACHN",
    "val": "> 100 µM (inactive)"
  }
]

GI50 reading for CC1CNC(NS(=O)(=O)c2cc(C(=O)Nc3ccc(F)cc3)c(Cl)cc2S)=NN1 (centres undefined) : 77.4 µM (inactive)

GI50 reading for CCNC12CCC(C1)C(C)(C)C2=O (centres undefined) : > 100 µM (inactive)

GI50 reading for COc1ccc2nc(NC(=O)C(=O)C(C#N)c3ccc(Cl)c(Cl)c3)sc2c1 (centres undefined) : > 100 µM (inactive)

GI50 reading for "Brc1ccc(/C(N=N/C(=N\Sc2ccccc2)c2ccc(Br)cc2)=N/Sc2ccccc2)cc1" : > 61.1 µM (inactive)

* * *

# System: SF-268
# assay name: NCI tumour cell line growth inhibition, 48 h
Calls of active or inactive are those of the source. Cut-off read from the data, not from the text of the source: active = GI50 up to about 1.1 µM and inactive = higher.
observation type: GI50

Solved entries:
[
  {
    "molecule": "COC(=O)C1CCC(=S)N1C(=O)c1ccccc1 (stereo not given)",
    "assay target": "SF-268",
    "GI50": "> 100 µM (inactive)"
  },
  {
    "molecule": "Cn1cco/c1=N/c1ccc(Cl)c(Cl)c1",
    "assay target": "SF-268",
    "GI50": "> 10 µM (inactive)"
  },
  {
    "molecule": "CON(C)C(=O)CNC(=O)OCC1c2ccccc2-c2ccccc21",
    "assay target": "SF-268",
    "GI50": "> 100 µM (inactive)"
  },
  {
    "molecule": "CCCC(=O)Nc1cc(/C=C/C(=O)N2CC(CCl)c3c2cc(OCc2ccccc2)c2[nH]cc(C)c32)n(C)c1 (stereo not given)",
    "assay target": "SF-268",
    "GI50": "0.0226 µM (active)"
  }
]

GI50 reading for C=C1C(=O)OC2CC(C)C(C(O)CC(C)O)=CCC12 (stereo not given) : 14.3 µM (inactive)

* * *

# Tested on: SN12C
# assay name: NCI tumour cell line growth inhibition, 48 h
Active and inactive are the calls of the source. Rule as the data show it: active = GI50 up to about 1.1 µM and inactive = higher.
observation type: GI50

Solved entries:
[
  {
    "molecule": "[N-]=[N+]=CC(=O)c1ccccc1C#CCCc1ccccc1",
    "assay target": "SN12C",
    "GI50": "35.5 µM (inactive)"
  },
  {
    "molecule": "N#C/C(=C\\c1ccc(O)cc1O)C(N)=O",
    "assay target": "SN12C",
    "GI50": "> 100 µM (inactive)"
  },
  {
    "molecule": "CCOC(=O)c1c(C)noc1/N=N/N(CCO)CCO",
    "assay target": "SN12C",
    "GI50": "37.5 µM (inactive)"
  }
]

Considering "CCCCN1C(=O)C[C@H]2[C@@H]3CCc4cc(OCCN5CCCC5)ccc4[C@H]3CC[C@]2(C)C1=O" , its GI50 with SN12C was recorded as 14.2 µM (inactive)

Considering "Cn1ccnc1Sc1ccc(/C=N\NC(=O)c2cccc(F)c2)cc1[N+](=O)[O-]" , its GI50 with SN12C was recorded as 50.1 µM (inactive)

Considering CCCCN1/C(=N/Nc2n[nH]c(=O)c3ccccc23)SCC1c1ccc(Cl)cc1 (stereo not drawn) , its GI50 with SN12C was recorded as 24.6 µM (inactive)

Considering "O=C(O)CCCCCO" , its GI50 with SN12C was recorded as > 100 µM (inactive)

Considering "CS(=O)(=O)OCC1=C(COS(C)(=O)=O)C(=O)c2c(O)ccc(O)c2C1=O" , its GI50 with SN12C was recorded as > 100 µM (inactive)

* * *

# System: SNB-75
# assay name: NCI tumour cell line growth inhibition, 48 h
Calls of active or inactive are those of the source. No stated cut-off is given here; in the data, active = GI50 up to about 1.1 µM and inactive = higher.
GI50 values for the compounds below.

[
  {
    "compound": "Cc1sc2nc(N(C)C)oc(=O)c2c1C",
    "assay target": "SNB-75",
    "GI50": "34.5 µM (inactive)"
  },
  {
    "compound": "O=C(CC(C(=O)c1ccsc1)c1ccsc1)c1ccsc1 (stereo not drawn)",
    "assay target": "SNB-75",
    "GI50": "56.5 µM (inactive)"
  }
]

GI50 reading for O=C(O)c1cc2c3c(c1)[C@H]1C=CC[C@H]1CN3CC1CC=CC21 (stereo partly drawn) : > 100 µM (inactive)

* * *

# System: SNB-75
# assay name: NCI tumour cell line growth inhibition, 48 h
Active and inactive are the calls of the source. No stated cut-off is given here; in the data, active = GI50 up to about 1.1 µM and inactive = higher.
GI50 values for the molecules below.

Solved entries:
[
  {
    "molecule": "C/C(CC(=O)Nc1ccc([N+](=O)[O-])cc1)=N/N=C(N)N",
    "assay target": "SNB-75",
    "val": "> 100 µM (inactive)"
  },
  {
    "molecule": "Nc1nc(Cl)cc(NCCCCCCCCCCCCNc2cc(Cl)nc(N)n2)n1",
    "assay target": "SNB-75",
    "val": "8.53 µM (inactive)"
  },
  {
    "molecule": "C=C(CCCCC)CN1CCCC1C(C)=O (stereo not given)",
    "assay target": "SNB-75",
    "val": "24.7 µM (inactive)"
  },
  {
    "molecule": "CCOC(=O)c1cc(C2CCN(CC(C)CC)C2=S)c(-c2cc(C)no2)[nH]1 (stereo not given)",
    "assay target": "SNB-75",
    "val": "57.9 µM (inactive)"
  }
]

GI50 reading for "c1cncc(CNc2ncn[nH]2)c1" : > 100 µM (inactive)
